Attribute: glycan array binding signal (z-score)
Molecular target: Neu5Ac(a2-3)Gal(b1-3)[Fuc(a1-4)]GlcNAc(b1-3)Gal(b1-4)[Fuc(a1-3)]GlcNAc
Assay: glycan array binding signal (z-score within array); higher = stronger binding
Conditions: glycan notation: IUPAC condensed, linker removed
The full list was thinned out, with the strongest signals kept by preference.
// return a plain number; no unit text

stdin: Give a short answer stating reported glycan array binding signal (z-score) for HPA (Helix pomatia), Q575S3 (protein) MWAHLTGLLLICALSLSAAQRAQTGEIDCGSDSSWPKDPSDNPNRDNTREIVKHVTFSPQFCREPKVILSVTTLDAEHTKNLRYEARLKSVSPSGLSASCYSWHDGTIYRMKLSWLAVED .
stdout: -0.209

stdin: Give a short answer stating reported glycan array binding signal (z-score) for SIGNR8 (Mus musculus) (protein) MAGEPEFHQSKNHEEEVTSGEQGFAEHDPEGLICSSKSLQGHLTQVPWLLLLLISLGLFLLMLATLVQVSRIRAYSQGQTQDQQGSSSLDKVAVPREQTHSGLEQIQQIQQQLTQFNASLAGLCRPCPWDWELFQGSCYLFSRTLGSWETSASSCEDLGAHLVIVNSVSEQRFMKYWNVRKNQRSWIGLSDHIHEGSWQWVDGSALKFSFWKEGEPNNDGDEDCVELFMDDWNDNKCTEQNFWVCEQPSAPCPHH .
stdout: -0.393

stdin: Give a short answer stating reported glycan array binding signal (z-score) for rCnSL-proA (Clitocybe nebularis) (protein) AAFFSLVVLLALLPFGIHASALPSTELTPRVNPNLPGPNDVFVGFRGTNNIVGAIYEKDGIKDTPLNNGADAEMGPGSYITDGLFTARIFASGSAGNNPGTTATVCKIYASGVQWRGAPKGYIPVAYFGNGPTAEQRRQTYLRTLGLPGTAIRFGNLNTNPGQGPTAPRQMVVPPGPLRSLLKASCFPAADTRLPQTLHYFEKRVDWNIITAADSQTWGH .
stdout: -0.238
